# system: T1, talin R7R8 rod domains (UniProt Q9Y490 1359-1659)
# T1 chain: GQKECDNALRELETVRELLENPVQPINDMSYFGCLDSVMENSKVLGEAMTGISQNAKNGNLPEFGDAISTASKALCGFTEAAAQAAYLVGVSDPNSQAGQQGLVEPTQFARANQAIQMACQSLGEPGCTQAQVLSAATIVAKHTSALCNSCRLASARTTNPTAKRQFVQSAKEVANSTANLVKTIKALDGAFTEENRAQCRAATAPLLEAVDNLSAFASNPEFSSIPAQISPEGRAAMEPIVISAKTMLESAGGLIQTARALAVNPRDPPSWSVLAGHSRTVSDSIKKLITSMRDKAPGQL
# assayText: FP
Where no end group is shown, it is not given here.
quantity: Kd (µM)
# value in µM; strip the unit string

Tell me measured Kd for SEDIDQMFSTLLGEMDLLTQSLGVDTC (also: fluorescein-labeled, position not given here) [RIAM(4-30) peptide, fluorescein-labeled] please. 3.6

All values here come from paper PMC8287531.
